Provenance of the data: patent US20260217797A1

Reported PSV IC50 values follow for various binders
MEASURED ON: SARS-CoV-2 wild type spike protein (on reporter virus particles) (SARS-CoV-2, UniProt P0DTC2 14-1273)
PROCEDURE TEXT: cell-based or functional assay
MEASURED PROPERTY: PSV IC50

A-2 (antibody, V domains shown) VH: EVQLVESGGGLIQPGGSLRLSCAASGFTVSSNYMSWVRQAPGKGLEWVSIIYSGGSTYYADSVKGRFTISRDNSKNTLYLQMNSLRAEDTAVYYCARAPSGEYGDPIYYWGQGTLVTVSS VL: QSVLTQPPSASASLGASVKLTCTLSSGHSTYTIAWHQQQPEKGPRYLMKLNSDGSHSKGDGIPDRFSGSSSGAERYLTISSLQSEDEADYYCQTWGTGNHWVFGGGTKLTVL = 0.025 µg/mL
A-6 (antibody, V domains shown) VH: QVQLVQSGGGVVQPGRSLRLSCAASGFTFSNFAMHWVRQAPGKGLEWVAVILYDGINKYYADSVKGRFTISRGNSKNTLSLQMNSLRAEDTAVYYCARAQNYYDRSGTLQLDAFDIWGQGTMVTVSS VL: DIVMTQSPSSLSASVGDRVTITCRASQGIRNDLGWYQQKPGKAPKLLIYAASSLQSGVPSRFSGSGSGTDFTLTISSLQPEDFATYYCLQDYNYPLTFGGGTKVEIK = 0.878 µg/mL
A-13 (antibody, V domains shown) VH: QVQLVQSGAEVKKPGASVKVSCKASGYTFTDYYMHWVRQAPGQGLEWMGWINPNSGGTNSAQKFQGRVTMTRDTSINTAYMELSRLRSDDTAVYFCARDSHLAMVRGDFEYWGQGTLVTVSS VL: QSVLTQPASVSGSPGQSITISCTGTSSDVESYNVVSWYQQHPGKAPKLMIYEVSKRPSGVSHRFSGSKSGNTASLTISGLQAEDESDYYCCSYAGNSTWVFGGGTKLTVL = 0.023 µg/mL
